Provenance of the data: PubChem BioAssay (Tox21)

- Assay remarks: qHTS assay to identify small molecule agonists or antagonists of the thyroid stimulating hormone receptor (TSHR) signaling pathway - wild type cell line counter screen (AID 1259384); note: % is set by controls: 0 for no effect and ±100 for the full control effect
- Experimental context: HEK293 wild type, cAMP HTRF counter-screen, active compounds read high; series mostly up to 92.4 µM
Inconclusive results are not listed. The source made the active and inactive calls. Calls come from the whole dose curve.
Measurement label: cAMP activity change

Consider the reported cAMP activity change for these molecules:
CN1CN(C)CN(C)C1
inactive
CCOC(=O)CC(C)O (centres undefined)
inactive
C=CC(=O)OCCC#N
inactive
O=C(O)c1cccc(Cl)n1
inactive
CCC(=O)CC(C)CC (centres undefined)
-1.63% [at 0.349 µM] (inactive)
c1cc(OCC2CO2)cc(OCC2CO2)c1 (centres undefined)
inactive
CCOC(=O)CN
inactive
C[C@]12CC[C@H]3C(=CCc4cc(O)ccc43)[C@@H]1CCC2=O
inactive
O=C1NCCN1CCN1CCC(c2cn(-c3ccc(F)cc3)c3ccc(Cl)cc23)CC1
inactive
N[C@@H](CSSC[C@H](N)C(=O)O)C(=O)O
-6.57% [at 0.349 µM] (inactive)

Endpoint output: cAMP activity change of CCC(C)c1ccccc1 (centres undefined) . Value?
inactive

I would be grateful if you could share the reported cAMP activity change for "CC(=O)OC1CCCCC1" .
inactive

Please give the measured cAMP activity change for this molecule: "COC(=O)[C@]1(C)CCC[C@@]2(C)[C@H]1CC=C1C=C(C(C)C)CC[C@@H]12"
inactive

For "Cc1cc(=O)[nH]c(=O)[nH]1" , what is its reported cAMP activity change?
inactive

----------
- Study target: Estrogen receptor (Homo sapiens)
- Assay remarks: qHTS assay to identify small molecule antagonists of the estrogen receptor alpha (ER-alpha) signaling pathway using the BG1 cell line in the presence of 0.1 nM 17-beta-estradiol (AID 1259244); note: % is set by controls: 0 for no effect and ±100 for the full control effect; nearly all actives have a fitted effect of over 50% in size
- Experimental context: VM7Luc4E2 (BG1) ERE-luciferase, antagonist mode, 0.1 nM E2, 22 h; series mostly up to 92.4 µM
Inconclusive results are not listed. Calls of active or inactive are those of the source. Calls follow the shape of the dose curve; as a rule, active = well fitted inhibition curve with a large enough effect in the repeat runs; inconclusive = weak or mixed curves; inactive = no such curve, though single readings can be large or run the other way.
Measurement label: Potency

Below: 5 molecules and their reported Potency.
S=P(N1CC1)(N1CC1)N1CC1
inactive
CO[Si](CCC1CCC2OC2C1)(OC)OC (stereo not given)
inactive
NC(=O)c1ccccc1N
inactive
CCCCCCCCCCOCC(O)CN (stereo not given)
inactive
COc1cccc(O)c1
inactive

Test system Estrogen receptor (Homo sapiens); read-out Potency; what value for CC(CN(C)C)CN1c2ccccc2CCc2ccccc21 (stereo not given) ?
inactive

API: value(readout=Potency, system=Estrogen receptor (Homo sapiens)) for record "COc1ccc(C#N)cc1"
inactive

State its Potency on Estrogen receptor (Homo sapiens): "CCCCCCCCCCc1ccccc1"
inactive

Lab note: need Potency for "C/C=C/C(=O)C1=C(C)CCCC1(C)C" on Estrogen receptor (Homo sapiens), anyone have it?
inactive

----------
- Assay remarks: qHTS assay to identify small molecule agonists of the sonic hedgehog signaling (Shh) pathway - cell viability counter screen (AID 1259366); note: % is set by controls: 0 for no effect and ±100 for the full control effect; nearly all actives have a fitted effect of over 50% in size
- Experimental context: NIH/3T3 Gli1-Luc viability, CellTiter-Fluor, 24 h; series mostly up to 92.4 µM
Records with an inconclusive call do not appear. Activity calls are given as the source filed them. Calls follow the shape of the dose curve; as a rule, active = well fitted cell-killing curve with a large enough effect in the repeat runs; inconclusive = weak or mixed curves, or effect the other way; inactive = flat fitted curve, though single readings scatter.
Measurement label: Potency

These recorded examples may help you get a feel for the data.
CN1[C@@H]2CC[C@@H]1CC(OC(=O)C(CO)c1ccccc1)C2 (some centres undefined)
inactive
CCOCOCC
inactive
CCCCCCOc1ccc(O)cc1
inactive
CCOC(=O)[C@@](C)(N)Cc1ccc(O)c(O)c1
inactive
O=Cc1ccc(F)cc1
inactive
Cn1cnc2ncnc(N)c21
inactive

Give the measured Potency of "CCCCCCCCC(C)=O" .
inactive

# lookup: Potency of "ClC/C=C\CCl"
inactive

// returns reported Potency for input "C(=C/c1ccccc1)/c1ccccc1"
inactive

Name the reported Potency value associated with the molecule "CC(=O)OC1CCCCC1"
inactive

GET /values?readout=Potency&item= "CC(=O)C=O"
inactive
